Hello, the source for this data is patent US20120101083A1, in case you need it.

Each record here notes measured EC50.
# measurement target: S1P1 (PathHunter CHO-K1 EDG1 β-Arrestin cell line) (Homo sapiens)
# Sequence (P32121 whole entry partner, one chain of several): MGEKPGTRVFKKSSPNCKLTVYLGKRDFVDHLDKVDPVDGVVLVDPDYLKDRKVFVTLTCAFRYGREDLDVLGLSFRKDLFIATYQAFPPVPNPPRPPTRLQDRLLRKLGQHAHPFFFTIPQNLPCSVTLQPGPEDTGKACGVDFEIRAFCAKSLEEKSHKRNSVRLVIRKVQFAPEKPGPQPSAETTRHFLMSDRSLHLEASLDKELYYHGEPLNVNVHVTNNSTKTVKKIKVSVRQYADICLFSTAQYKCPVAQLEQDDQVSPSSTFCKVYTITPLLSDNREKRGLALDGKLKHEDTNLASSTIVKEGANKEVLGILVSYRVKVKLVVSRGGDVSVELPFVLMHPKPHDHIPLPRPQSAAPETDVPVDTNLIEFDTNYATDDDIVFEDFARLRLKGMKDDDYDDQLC
# method notes: S1P-1 β-Arrestin recruitment assay
# condition: CHO-K1 EDG1 β-Arrestin cells, chemi-luminescence
Structures can show the parent of a compound that is named as a salt.

compound	EC50
CC(C)Oc1ccc(-c2nc(-c3cccc4c3CCN(C(=O)[C@@H](N)CO)C4)no2)cc1C#N [Example 89, hydrochloride]	≤ 10 nM
N#Cc1cc(-c2nc(-c3ccc4c(c3)CCN(C(=O)CN)CC4)no2)ccc1OC(CF)CF [Example 54]	≤ 10 nM
Cc1c(-c2noc(-c3cnc(OC(C)C)c(C#N)c3)n2)ccc2c1CCN(C[C@@H](O)CO)C2 [Example 133]	≤ 100 nM
Cc1c(-c2noc(-c3ccc(OC(C)C)c(C#N)c3)n2)ccc2c1CCN(CC(O)CO)C2 (stereo not drawn) [Example 6]	≤ 10 nM

Hello, please tell me recorded EC50 for this one: CC(C)Nc1ncc(-c2nc(-c3ccc4c(c3)CCN(C(CO)CO)CC4)no2)cc1C#N [Example 108, hydrochloride] ≤ 100 nM

Give the value of EC50 reported for the following: CC(C)Oc1ccc(-c2nc(-c3cccc4c3CCN(C(=O)CN)C4)no2)cc1C#N [Example 87, hydrochloride] ≤ 10 nM

Consider the compound CNCCC(=O)N1CCc2ccc(-c3noc(-c4ccc(OC(C)C)c(C#N)c4)n3)cc2CC1 [Example 67] and give its recorded EC50. ≤ 100 nM

Determine its reported EC50: Cc1c(-c2noc(-c3ccc(OC(C)C)c(C#N)c3)n2)ccc2c1CCN(C[C@H](O)CO)C2 [Example 71, hydrochloride] ≤ 100 nM

Annotate the compound CNCCC(=O)N1CCc2c(ccc(-c3noc(-c4ccc(OC(C)C)c(C#N)c4)n3)c2C)C1 [Example 40, hydrochloride] with its measured EC50. ≤ 10 nM

Give me measured EC50, please, for this compound: CC(C)Oc1ccc(-c2nc(-c3ccc4c(c3)CCN(CC(=O)N3CCOCC3)CC4)no2)cc1C#N [Example 92, hydrochloride] ≤ 100 nM

Name the recorded EC50 of the compound listed here: COC(=O)NCCN1CCc2ccc(-c3noc(-c4ccc(OC(C)C)c(C#N)c4)n3)cc2CC1 [Example 100] ≤ 10 nM

Please report the measured EC50 for Cc1c(-c2noc(-c3ccc(OC(C)C)c(C#N)c3)n2)ccc2c1CCN(CC(=O)NCCO)C2 [Example 122, hydrochloride] ≤ 10 nM

###

# measurement target: S1P1 receptor (S1P1 expressing RH7777 membranes) (Homo sapiens, UniProt P21453)
# Construct: expressed in transfected cells; host or cells: RH7777 cells (membranes)
# Sequence (P21453 whole entry): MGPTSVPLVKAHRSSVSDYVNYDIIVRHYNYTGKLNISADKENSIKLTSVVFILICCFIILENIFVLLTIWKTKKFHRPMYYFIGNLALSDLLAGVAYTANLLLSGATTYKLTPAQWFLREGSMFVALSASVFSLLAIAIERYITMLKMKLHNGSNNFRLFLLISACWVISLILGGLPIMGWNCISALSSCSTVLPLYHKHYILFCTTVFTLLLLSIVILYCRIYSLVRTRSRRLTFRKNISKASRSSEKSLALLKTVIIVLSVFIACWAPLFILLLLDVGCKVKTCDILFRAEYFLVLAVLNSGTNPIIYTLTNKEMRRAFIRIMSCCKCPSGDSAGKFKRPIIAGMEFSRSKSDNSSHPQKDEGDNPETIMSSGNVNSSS
# method notes: S1P1 GTPγS assay
# Format: biochemical
# condition: tested in one of the above S1P1 assays (two GTPγS formats)
Counter-ions that a name gives are not always drawn.
property measured: EC50

Consider the following illustrative entries.
compound	observed measurement
N#Cc1cc(-c2nc(-c3ccc4c(c3)CCN(C(=O)CN)CC4)no2)ccc1N1CC(F)C1	≤ 1000 nM
CC(C)Oc1ccc(-c2nc(-c3ccc4c(c3)CCN(CCO)CC4)no2)cc1C#N	≤ 100 nM
Cc1c(-c2nnc(-c3ccc(OC(C)C)c(C#N)c3)s2)ccc2c1CCN(CCO)C2	≤ 100 nM
CC(C)Oc1ccc(-c2nc(-c3ccc4c(c3)CCN(C(=O)CNC(CO)CO)CC4)no2)cc1C#N [Example 197, hydrochloride]	≤ 100 nM
Cc1c(-c2noc(-c3ccc(OC(C)C)c(C#N)c3)n2)ccc2c1CCN(CC(=O)NCCO)C2 [Example 122, hydrochloride]	≤ 10 nM
CC(C)Oc1ccc(-c2nc(-c3cccc4c3CCN(CC(N)=O)CC4)no2)cc1C#N	≤ 1000 nM
CC(C)Nc1ccc(-c2nc(-c3ccc4c(c3)CCN(C(=O)CN)CC4)no2)cc1C#N	≤ 100 nM
CCCOc1ccc(-c2nc(-c3ccc4c(c3)CCN(C(=O)CN)CC4)no2)cc1C#N	≤ 100 nM
Cc1c(-c2noc(-c3cnc(OC(C)C)c(C#N)c3)n2)ccc2c1CCN(C(=O)[C@@H](N)[C@@H](C)O)C2 [Example 79, hydrochloride]	≤ 100 nM
COC(=O)NCCCN1CCc2ccc(-c3noc(-c4ccc(OC(C)C)c(C#N)c4)n3)cc2CC1	≤ 1000 nM

Give S1P1 receptor (S1P1 expressing RH7777 membranes) (Homo sapiens, UniProt P21453) EC50 for the following compound: "Cc1c(-c2noc(-c3ccc(OC(C)C)c(C#N)c3)n2)ccc2c1CCN(C(=O)CNC(CO)CO)CC2" ≤ 100 nM

Recall the reported EC50 of Cc1c(-c2noc(-c3ccc(OC(C)C)c(C#N)c3)n2)ccc2c1CCN(C(=O)CCCN)C2 [Example 41, hydrochloride] when tested on S1P1 receptor (S1P1 expressing RH7777 membranes) (Homo sapiens, UniProt P21453). ≤ 100 nM

Provide EC50, system S1P1 receptor (S1P1 expressing RH7777 membranes) (Homo sapiens, UniProt P21453), entry "CCCOc1ncc(-c2nc(-c3ccc4c(c3)CCN(C(=O)CN)CC4)no2)cc1C#N" ≤ 1000 nM

Quote EC50 with test system S1P1 receptor (S1P1 expressing RH7777 membranes) (Homo sapiens, UniProt P21453) for "Cc1c(-c2nnc(-c3ccc(OC(C)C)c(C#N)c3)s2)ccc2c1CCN(CCC(=O)N(C)C)C2" ≤ 100 nM

Give EC50 only, for "CNCCC(=O)N1CCc2ccc(-c3noc(-c4ccc(OC(C)C)c(C#N)c4)n3)cc2CC1" , using S1P1 receptor (S1P1 expressing RH7777 membranes) (Homo sapiens, UniProt P21453) data. ≤ 100 nM

###

# measurement target: S1P1 receptor (S1P1 expressing RH7777 membranes) (Homo sapiens, UniProt P21453)
# Construct: expressed in transfected cells; host or cells: RH7777 cells (membranes)
# method notes: S1P1 GTPγS assay
# Type: biochemical
# condition: tested in one of the above S1P1 assays (two GTPγS formats)
pEC50: −log10 of the molar value. Counter-ions that a name gives are not always drawn.
Overview of reported pEC50 across a group of molecules:

Below: 7 molecules and their reported pEC50.
molecule	measurement target	observed measurement
CC(C)Oc1ccc(-c2nc(-c3cccc4c3CCN(C(=O)CN)C4)no2)cc1C#N [Example 87, hydrochloride]	S1P1 receptor (S1P1 expressing RH7777 membranes) (Homo sapiens, UniProt P21453)	≥ 8.00
COCCN1CCc2ccc(-c3noc(-c4ccc(OC(C)C)c(C#N)c4)n3)cc2CC1	S1P1 receptor (S1P1 expressing RH7777 membranes) (Homo sapiens, UniProt P21453)	≥ 7.00
Cc1c(-c2noc(-c3ccc(OC(C)C)c(C#N)c3)n2)ccc2c1CCN(CC(=O)NC[C@H](C)O)CC2	S1P1 receptor (S1P1 expressing RH7777 membranes) (Homo sapiens, UniProt P21453)	≥ 7.00
Cc1c(-c2noc(-c3ccc(OC(C)C)c(C#N)c3)n2)ccc2c1CCN(CCC(=O)N(C)C)C2	S1P1 receptor (S1P1 expressing RH7777 membranes) (Homo sapiens, UniProt P21453)	≥ 7.00
Cc1c(-c2noc(-c3ccc(OC(C)C)c(C#N)c3)n2)ccc2c1CCN(C(CO)CO)C2 [Example 65]	S1P1 receptor (S1P1 expressing RH7777 membranes) (Homo sapiens, UniProt P21453)	≥ 6.00
CC(C)Oc1ccc(-c2nc(-c3ccc4c(c3)CCN(C(=O)CCN)CC4)no2)cc1C#N	S1P1 receptor (S1P1 expressing RH7777 membranes) (Homo sapiens, UniProt P21453)	≥ 7.00
CC(=O)NCCN1CCc2ccc(-c3noc(-c4ccc(OC(C)C)c(C#N)c4)n3)cc2CC1	S1P1 receptor (S1P1 expressing RH7777 membranes) (Homo sapiens, UniProt P21453)	≥ 8.00

// switching to the query molecule
Input "Cc1c(-c2noc(-c3ccc(OC(C)C)c(C#N)c3)n2)ccc2c1CCN(C(=O)CNCCO)CC2" , output reported pEC50. 9.00

###

# measurement target: S1P1 receptor (S1P1 expressing RH7777 membranes) (Homo sapiens, UniProt P21453)
# Construct: expressed in transfected cells; host or cells: RH7777 cells (membranes)
# method notes: S1P1 GTPγS assay
# Format: biochemical
# condition: tested in one of the above S1P1 assays (two GTPγS formats)
# Protocol: The potencies and efficacies of the compounds of this invention for the S1P1 receptor can be determined by GTPγS assay performed on the human cloned receptor as described herein. Membrane preparation for S1P1 GTPγS assay All steps were performed at 4° C. Cells were homogenised within a glass Waring blender for 2 bursts of 15 secs in 200 mls of buffer (50 mM HEPES, 1 mM leupeptin, 25 μg/ml bacitracin, 1 mM EDTA, 1 mM PMSF, 2 μM pepstatin A). […]
Where a name gives a salt, the structure may show the parent alone.
# EC50 per record follows

Observe how each entry below is paired with its result.
compound	EC50
CC(C)Oc1ccc(-c2nc(-c3ccc4c(c3)CCN(CC(=O)N3CCOCC3)CC4)no2)cc1C#N [Example 92, hydrochloride]	≤ 10 nM
CC(C)Oc1ccc(-c2nc(-c3cccc4c3CCN(C(=O)[C@@H](N)CO)C4)no2)cc1C#N [Example 89, hydrochloride]	1 nM
COCCN1CCc2c(ccc(-c3noc(-c4ccc(OC(C)C)c(C#N)c4)n3)c2C)C1	≤ 100 nM

// next item, EC50 requested
Determine its reported EC50: "CNC(=O)CCN1CCc2c(cccc2-c2nnc(-c3ccc(OC(C)C)c(C#N)c3)s2)C1" > 10000 nM
